Cited source: ChEMBL document CHEMBL3352816

Kindly state GI50 for each of the entries shown.
# TEST PROTOCOL: Growth inhibition of human NSCLC cells
# Format: functional
Answers are plain numbers, in µM.

COc1ccc(-c2nc3sc(Cc4ccccc4)nn3c2SC#N)cc1: 4.6
O=Cc1c(-c2ccc([N+](=O)[O-])cc2)nc2sc(Cc3ccccc3)nn12: 2.9
O=[N+]([O-])c1ccc(-c2nc3sc(Cc4ccccc4)nn3c2Br)cc1: 12.6
O=Cc1c(-c2ccc(F)cc2)nc2sc(CCC3CCCCC3)nn12: 13.2

# batch size: 4; output GI50 per entry
1. CO[C@H]1/C=C/O[C@@]2(C)Oc3c(C)c(O)c4c(O)c(cc(O)c4c3C2=O)NC(=O)/C(C)=C\C=C\[C@H](C)[C@H](O)[C@@H](C)[C@@H](O)[C@@H](C)[C@H](OC(C)=O)[C@@H]1C
2. Clc1ccc(-c2cn3nc(Cc4ccccc4)sc3n2)cc1
3. N#CSc1c(-c2ccccc2)nc2sc(Cc3ccccc3)nn12
4. O=Cc1c(-c2ccc(Br)cc2)nc2sc(Cc3ccccc3)nn12

Result:
1. 14.5
2. 7.6
3. 6
4. 4.2

====

# TEST PROTOCOL: Growth inhibition of human Leukemia cells
# Type: functional
# ASSAY CONDITIONS: Leukemia cell
OBSERVATION TYPE: GI50 (µM)
Answers are plain numbers, in µM.

# annotated cases, reported GI50 shown
N#CSc1c(-c2ccccc2)nc2sc(Cc3ccccc3)nn12: 13.5
O=Cc1c(-c2ccc(F)cc2)nc2sc(CCC3CCCCC3)nn12: 10.2
CO[C@H]1/C=C/O[C@@]2(C)Oc3c(C)c(O)c4c(O)c(cc(O)c4c3C2=O)NC(=O)/C(C)=C\C=C\[C@H](C)[C@H](O)[C@@H](C)[C@@H](O)[C@@H](C)[C@H](OC(C)=O)[C@@H]1C: 3.2

# batch size: 4; output GI50 per entry
1. O=Cc1c(-c2ccc(Br)cc2)nc2sc(Cc3ccccc3)nn12
2. O=Cc1c(-c2ccc([N+](=O)[O-])cc2)nc2sc(Cc3ccccc3)nn12
3. Clc1ccc(-c2cn3nc(Cc4ccccc4)sc3n2)cc1
4. O=[N+]([O-])c1ccc(-c2nc3sc(Cc4ccccc4)nn3c2Br)cc1

Result:
1. 1.41
2. 5.9
3. 2.1
4. 69.2

Query: Give GI50 for the following compound: `COc1ccc(-c2nc3sc(Cc4ccccc4)nn3c2SC#N)cc1`
Result: 3.6

====

Kindly state TGI for each of the entries shown.
# TEST PROTOCOL: Growth inhibition of human Melanoma cells
# Type: functional
# ASSAY CONDITIONS: Melanoma cell

N#CSc1c(-c2ccccc2)nc2sc(Cc3ccccc3)nn12: 85.1 µM
O=Cc1c(-c2ccc([N+](=O)[O-])cc2)nc2sc(Cc3ccccc3)nn12: 42.7 µM
Clc1ccc(-c2cn3nc(Cc4ccccc4)sc3n2)cc1: 8.9 µM
O=Cc1c(-c2ccc(Br)cc2)nc2sc(Cc3ccccc3)nn12: 19.5 µM
O=Cc1c(-c2ccc(F)cc2)nc2sc(CCC3CCCCC3)nn12: 87.1 µM

Query: Give TGI for the following compound: `COc1ccc(-c2nc3sc(Cc4ccccc4)nn3c2SC#N)cc1`
Result: 77.6 µM

====

# TEST PROTOCOL: Growth inhibition of human Colon cancer cells
# Assay type: functional
# ASSAY CONDITIONS: Cancer cell lines
OBSERVATION TYPE: GI50 (µM)
Numbers only, in µM.

# annotated cases, reported GI50 shown
O=[N+]([O-])c1ccc(-c2nc3sc(Cc4ccccc4)nn3c2Br)cc1: 52.5
Clc1ccc(-c2cn3nc(Cc4ccccc4)sc3n2)cc1: 2.2
N#CSc1c(-c2ccccc2)nc2sc(Cc3ccccc3)nn12: 11.2

Below: the item to evaluate.
Query: Give GI50 for the following compound: `O=Cc1c(-c2ccc(Br)cc2)nc2sc(Cc3ccccc3)nn12`
Result: 2.2

====

# TEST PROTOCOL: Growth inhibition of human Colon cancer cells
# Format: functional
# ASSAY CONDITIONS: Cancer cell lines
# yes (1) = TGI below 60 µM (exclusive); no (0) = TGI at/above 60 µM

O=Cc1c(-c2ccc(Br)cc2)nc2sc(Cc3ccccc3)nn12: yes (1)
O=Cc1c(-c2ccc([N+](=O)[O-])cc2)nc2sc(Cc3ccccc3)nn12: yes (1)
O=[N+]([O-])c1ccc(-c2nc3sc(Cc4ccccc4)nn3c2Br)cc1: no (0)

Query: Quick check: does `O=Cc1c(-c2ccc(F)cc2)nc2sc(CCC3CCCCC3)nn12` have TGI under 60 µM?
Result: no (0)

Query: Quick check: does `Clc1ccc(-c2cn3nc(Cc4ccccc4)sc3n2)cc1` have TGI under 60 µM?
Result: yes (1)

Query: Quick check: does `N#CSc1c(-c2ccccc2)nc2sc(Cc3ccccc3)nn12` have TGI under 60 µM?
Result: no (0)

====

# TEST PROTOCOL: Growth inhibition of human Colon cancer cells
# Type: functional
# ASSAY CONDITIONS: Cancer cell lines
OBSERVATION TYPE: GI50 (µM)
One number for each entry, in µM.

# annotated cases, reported GI50 shown
COc1ccc(-c2nc3sc(Cc4ccccc4)nn3c2SC#N)cc1: 4.1
CO[C@H]1/C=C/O[C@@]2(C)Oc3c(C)c(O)c4c(O)c(cc(O)c4c3C2=O)NC(=O)/C(C)=C\C=C\[C@H](C)[C@H](O)[C@@H](C)[C@@H](O)[C@@H](C)[C@H](OC(C)=O)[C@@H]1C: 10
O=Cc1c(-c2ccc([N+](=O)[O-])cc2)nc2sc(Cc3ccccc3)nn12: 3.1

Below: the item to evaluate.
Query: Give GI50 for the following molecule: `O=Cc1c(-c2ccc(F)cc2)nc2sc(CCC3CCCCC3)nn12`
Result: 5.9

====

# TEST PROTOCOL: Growth inhibition of human NSCLC cells
# Type: functional
OBSERVATION TYPE: LC50 (concentration killing 50% of cells) (µM)
Give bare numbers, in µM.

O=Cc1c(-c2ccc([N+](=O)[O-])cc2)nc2sc(Cc3ccccc3)nn12: 95.5

# batch size: 2; output LC50 (concentration killing 50% of cells) per entry
1. Clc1ccc(-c2cn3nc(Cc4ccccc4)sc3n2)cc1
2. COc1ccc(-c2nc3sc(Cc4ccccc4)nn3c2SC#N)cc1

Result:
1: 57.5; 2: 83.2

# batch size: 2; output LC50 (concentration killing 50% of cells) per entry
1. N#CSc1c(-c2ccccc2)nc2sc(Cc3ccccc3)nn12
2. O=Cc1c(-c2ccc(Br)cc2)nc2sc(Cc3ccccc3)nn12

Result:
97.7
95.5

====

# TEST PROTOCOL: Growth inhibition of human Ovarian cancer cells
# Type: functional
# ASSAY CONDITIONS: Cancer cell lines
OBSERVATION TYPE: GI50 (µM)
Numbers only, in µM.

# annotated cases, reported GI50 shown
O=Cc1c(-c2ccc(F)cc2)nc2sc(CCC3CCCCC3)nn12: 12.3
Clc1ccc(-c2cn3nc(Cc4ccccc4)sc3n2)cc1: 4.6
O=Cc1c(-c2ccc([N+](=O)[O-])cc2)nc2sc(Cc3ccccc3)nn12: 4.1
N#CSc1c(-c2ccccc2)nc2sc(Cc3ccccc3)nn12: 9.8
COc1ccc(-c2nc3sc(Cc4ccccc4)nn3c2SC#N)cc1: 5.6

# batch size: 3; output GI50 per entry
1. CO[C@H]1/C=C/O[C@@]2(C)Oc3c(C)c(O)c4c(O)c(cc(O)c4c3C2=O)NC(=O)/C(C)=C\C=C\[C@H](C)[C@H](O)[C@@H](C)[C@@H](O)[C@@H](C)[C@H](OC(C)=O)[C@@H]1C [RIFAMYCIN]
2. O=Cc1c(-c2ccc(Br)cc2)nc2sc(Cc3ccccc3)nn12
3. O=[N+]([O-])c1ccc(-c2nc3sc(Cc4ccccc4)nn3c2Br)cc1

Result:
[18.6, 4.2, 6.3]

====

# TEST PROTOCOL: Growth inhibition of human Breast cancer cells
# Format: functional
# ASSAY CONDITIONS: Cancer cell lines
Kindly state GI50 for each of the entries shown.
Answers are plain numbers, in µM.

# annotated cases, reported GI50 shown
Clc1ccc(-c2cn3nc(Cc4ccccc4)sc3n2)cc1: 4
O=Cc1c(-c2ccc(Br)cc2)nc2sc(Cc3ccccc3)nn12: 3.5
O=Cc1c(-c2ccc([N+](=O)[O-])cc2)nc2sc(Cc3ccccc3)nn12: 2.8
N#CSc1c(-c2ccccc2)nc2sc(Cc3ccccc3)nn12: 7.4

# batch size: 4; output GI50 per entry
1. CO[C@H]1/C=C/O[C@@]2(C)Oc3c(C)c(O)c4c(O)c(cc(O)c4c3C2=O)NC(=O)/C(C)=C\C=C\[C@H](C)[C@H](O)[C@@H](C)[C@@H](O)[C@@H](C)[C@H](OC(C)=O)[C@@H]1C
2. O=Cc1c(-c2ccc(F)cc2)nc2sc(CCC3CCCCC3)nn12
3. O=[N+]([O-])c1ccc(-c2nc3sc(Cc4ccccc4)nn3c2Br)cc1
4. COc1ccc(-c2nc3sc(Cc4ccccc4)nn3c2SC#N)cc1

Result:
1: 16.6; 2: 11.8; 3: 17.4; 4: 4.8
